Where do these numbers come from? They come from PubChem BioAssay (EPA / NIEHS).

Target: guinea pig Sigma Receptor, Non-selective Binding, SIGMAR1 (gene 100135589)
Experiment: NVS_OR_gSIGMA_NonSelective: NovaScreen (NVS) Nuclear Receptor Binding Assay for guinea pig Sigma Receptor, Non-selective Binding (AID 2283367)
The source made the active and inactive calls. Rule for the calls: active = hit-call score of the fitted dose curve at least 0.9, where 1 is the maximum; inconclusive = response in the unintended direction; inactive = score below 0.9.
Respond with a class label; see yes for active, no for inactive

COMPOUND	TGT	ASSIGNED_CATEGORY
CCC(C)(C)C1CCC(O)CC1 (stereo not drawn)	guinea pig Sigma Receptor, Non-selective Binding, SIGMAR1 (gene 100135589)	no
Cc1cc(C)c(O)c(C)c1	guinea pig Sigma Receptor, Non-selective Binding, SIGMAR1 (gene 100135589)	no
CCc1ccc(CCOc2ccc(CC3SC(=O)NC3=O)cc2)nc1 (stereo not drawn)	guinea pig Sigma Receptor, Non-selective Binding, SIGMAR1 (gene 100135589)	no
NC(=O)N(O)[C@@H]1C=C[C@H](Oc2cccc(Oc3ccc(F)cc3)c2)C1	guinea pig Sigma Receptor, Non-selective Binding, SIGMAR1 (gene 100135589)	yes
CCN(CC)CCNc1ccc(CNC=O)c2sc3ccc(OC)cc3c(=O)c12	guinea pig Sigma Receptor, Non-selective Binding, SIGMAR1 (gene 100135589)	yes

What call does the record list for CCCOc1sc(C(=O)N2CCC(c3cc(CN)ccc3F)CC2)c(C)c1Br ?
yes

Can you look up the reported call for c1ccc2c(c1)ccc1ccccc12 for me?
no

Returns: the outcome recorded for OC1CCC(C2CCCCC2)CC1 (stereo not drawn) in this assay.
yes
